Cited source: patent US20240132431A1

molecular target: Bcl-2 protein (Recombinant Human Bcl-2 Protein) (Homo sapiens); construct: purchased Novus NBP2-34889; test: Binding evaluation of mixture library compounds to Bcl-2 using AS-MS (affinity selection mass spectrometry); details: AS-MS on the mixture of 1200 library compounds; ASMS Ratio(%)=(A−C)/B×100; replicate n = 1
Here the recorded ASMS ratio (%) n = 1 is given for each entry.
// note: answer is a bare numeric in %

Consider the reported ASMS ratio (%) n = 1 for these compounds:
CCOc1cccc(-c2ccc(C(=O)N3CCN(c4ccc(C(=O)N(CC)CC)nn4)CC3)cc2C)c1 [B4J003-01]
0.0
CCOc1cccc(-c2ccc(C(C)N3CCN(c4ccc(C(=O)N(C)CC56CC7CC(CC(C7)C5)C6)cc4)CC3)c(F)c2)c1 (stereo not shown) [B3A099-01]
−2.6

Entry CCOc1cncc(-c2cc(C(=O)N3CCN(c4ccc(C(=O)N(C)CC56CC7CC(CC(C7)C5)C6)cc4)CC3)cc(C(F)(F)F)c2)c1 [B3A040-01] needs its ASMS ratio (%) n = 1 filled in; supply it. 3.5

----------
molecular target: Bcl-2 protein (Recombinant Human Bcl-2 Protein) (Homo sapiens, UniProt P10415); construct: purchased Novus NBP2-34889; experiment: Binding evaluation of mixture library compounds to Bcl-2 using AS-MS (affinity selection mass spectrometry); settings: AS-MS, mixture library, Bcl-2; replicate n = 2; ASMS Ratio(%)=(A−C)/B×100
Sequence (P10415 whole entry): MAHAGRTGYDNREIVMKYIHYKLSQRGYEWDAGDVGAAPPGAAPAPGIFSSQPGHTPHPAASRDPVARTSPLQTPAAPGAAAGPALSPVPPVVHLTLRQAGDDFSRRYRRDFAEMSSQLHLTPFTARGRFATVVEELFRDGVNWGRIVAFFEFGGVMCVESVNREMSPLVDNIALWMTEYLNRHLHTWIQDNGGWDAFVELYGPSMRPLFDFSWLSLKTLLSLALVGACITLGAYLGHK
Here the recorded ASMS ratio (%) n = 2 is given for each entry.
// note: answer is a bare numeric in %

CCOc1cccc(-c2cc(CN3CCN(c4ccc(C(=O)NS(=O)(=O)c5ccc(NCCSc6ccccc6)c([N+](=O)[O-])c5)nn4)CC3)cc(OC(C)C)c2)c1
0.0
CCOc1cncc(-c2ccc(C(C)N3CCN(c4ccc(C(=O)NS(=O)(=O)c5ccc(NCCSc6ccccc6)c([N+](=O)[O-])c5)cc4)CC3)cc2)c1 (stereo not drawn)
90.8

Then this compound:
Entry `CCOc1cccc(-c2cc(CN3CCN(c4ccc(C(=O)N(CC)CC)nn4)CC3)cc(OCC)c2)c1` needs its ASMS ratio (%) n = 2 filled in; supply it. 0.0

----------
target: Bcl-2 protein (Recombinant Human Bcl-2 Protein) (Homo sapiens); construct: purchased Novus NBP2-34889; assay: Binding evaluation of mixture library compounds to Bcl-2 using AS-MS (affinity selection mass spectrometry); settings: AS-MS, mixture library, Bcl-2; replicate n = 2; ASMS Ratio(%)=(A−C)/B×100
Here the recorded ASMS ratio (%) n = 2 is given for each entry.
Respond with a number, then the unit of measure.

Consider the reported ASMS ratio (%) n = 2 for these molecules:
CCOc1cccc(-c2cc(CN3CCN(c4ccc(C(=O)N(CC)CC)nn4)CC3)cc(OC(C)C)c2)c1 [B4J083-01]
0.0%
CCOc1cncc(-c2cc(CN3CCN(c4ccc(C(=O)NS(=O)(=O)CC56CC7CC(CC(C7)C5)C6)nn4)CC3)cc(C(F)(F)F)c2)c1 [B2A088-01]
14.0%
CCOc1cncc(-c2ccccc2CN2CCN(c3ccc(C(=O)NS(=O)(=O)c4ccc(NCCSc5ccccc5)c([N+](=O)[O-])c4)cc3)CC2)c1 [B2Q046-01]
20.5%
CCOc1cncc(-c2ccc(CN3CCN(c4ccc(C(=O)NS(=O)(=O)CC56CC7CC(CC(C7)C5)C6)cc4)CC3)c3ccccc23)c1 [B2A066-01]
0.0%
CCOc1cncc(-c2ccc(CN3CCN(c4ccc(C(=O)N(CC)CC)nn4)CC3)c3ccccc23)c1 [B4J092-01]
0.3%

Entry CCOc1cncc(C#Cc2ccccc2C(=O)N2CCN(c3ccc(C(=O)NS(=O)(=O)CC45CC6CC(CC(C6)C4)C5)nn3)CC2)c1 [B2A008-01] needs its ASMS ratio (%) n = 2 filled in; supply it. 7.2%
